experimental_readout: logP

1 = CN(C)CCNC(=O)c1ccccc1
2 = COc1ccccc1C(=O)N1CCN(C)CC1
3 = CCN(CC)CCCNC(=O)c1ccccc1OC
// TODO: order the 3 compounds above by logP, descending # format: label list in the order the request specifies
3, 1, 2
(3: 1.76, 1: 1.1, 2: 0.29)

====

Experiment: method code SF-AS, from DOI: 10.1002/hlca.19830660215
Settings: pH 11.0
experimental_readout: logD

sample_smiles: COc1ccccc1C(=O)NCCCCN
test_result: 0.58

A = NCCCCNC(=O)c1ccccc1
B = NCCCNC(=O)c1ccccc1
Quick one: lower logD, A or B ? Returns: label corresponding to the selected item.
B

Cited source for all entries: the SangsterLogP compilation
